biological target: FAAH (Mus musculus); construct: A fragment of liver, left lung lobe and brain without cerebellum were removed; from tissue; host or cells: male NMRI mice; brain (without cerebellum) and liver homogenates; assay: In vivo FAAH inhibition after oral dosing, remaining activity in brain homogenate (BRh, central nervous tissue); parameters: species or system NMRI mice; details: brain homogenate, 3 mg/kg, 8 h after dosing; low value = strong inhibitor
Assay Endpoint: In Vivo BRh 3 mg·kg 8 h (remaining FAAH activity, % of control)

Known results for compounds:
Q: Entry CN(C(=O)n1cnc(-c2ccc[n+]([O-])c2)c1)C1CCCCC1 has what In Vivo BRh 3 mg·kg 8 h (remaining FAAH activity, % of control)?
Result: 1.6 % of control

Q: What about this compound? CN(C(=O)n1cnc(-c2ccc(S(N)(=O)=O)cc2)c1)C1CCCCC1
Result: 95.3 % of control

Q: What about this compound? CN(C(=O)n1cnc(-c2cccc([N+](=O)[O-])c2)c1)C1CCCCC1
Result: 12.8 % of control

Q: What about this compound? CN(C(=O)n1cnc(-c2ccc(F)c(O)c2)c1)C1CCCCC1
Result: 95.5 % of control

Q: What about this compound? CC1(C)OC(c2ccccc2)CN1C(=O)n1cnc(-c2ccccc2)c1 (centres unmarked)
Result: 74.4 % of control

---
Q: Entry Cc1nc(-c2ccccc2)cn1C(=O)N(C)C1CCCCC1 has what In Vivo BRh 3 mg·kg 8 h (remaining FAAH activity, % of control)?
Result: 91.6 % of control

Q: What about this compound? CN(C(=O)n1cnc(-c2ccc3c(c2)[nH]c(=O)n3Cc2ccccc2)c1)C1CCCCC1
Result: 96.9 % of control

Q: What about this compound? Br.CN(C(=O)n1cnc(-c2ccc(O)c(O)c2)c1)C1CCN(Cc2ccccc2)CC1
Result: 3.8 % of control

###

target: FAAH (Rattus norvegicus, UniProt P97612); construct: Frozen brains (without cerebellum) from Wistar rats were used; from tissue; host or cells: Wistar rat brain (without cerebellum), washed membrane pellets; assay: In vitro FAAH activity in rat brain membranes, 3H-AEA substrate, % of control; type: biochemical, Wistar rats; conditions: rat brain membranes, compound at 100 nM, low value = strong inhibitor
Sequence (P97612 whole entry): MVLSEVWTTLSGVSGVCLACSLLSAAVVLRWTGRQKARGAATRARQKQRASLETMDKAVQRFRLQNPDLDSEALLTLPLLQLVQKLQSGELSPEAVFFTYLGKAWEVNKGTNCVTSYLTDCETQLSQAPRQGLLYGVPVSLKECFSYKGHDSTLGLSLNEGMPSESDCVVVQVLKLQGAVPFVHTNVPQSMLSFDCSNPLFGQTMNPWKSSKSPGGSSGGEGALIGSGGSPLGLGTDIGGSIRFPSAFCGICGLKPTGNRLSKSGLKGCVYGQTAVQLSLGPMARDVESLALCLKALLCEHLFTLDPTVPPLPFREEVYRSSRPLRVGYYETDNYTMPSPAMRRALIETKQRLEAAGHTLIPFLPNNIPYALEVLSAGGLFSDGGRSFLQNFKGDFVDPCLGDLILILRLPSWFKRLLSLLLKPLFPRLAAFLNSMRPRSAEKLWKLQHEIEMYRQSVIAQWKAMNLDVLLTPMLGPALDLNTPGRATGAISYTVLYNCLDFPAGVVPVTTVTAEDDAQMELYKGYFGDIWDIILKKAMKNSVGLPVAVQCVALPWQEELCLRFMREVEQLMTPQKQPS
Assay Endpoint: In Vitro 100 nM (FAAH activity, % of control)

Known results for compounds:
Q: Test system FAAH (Rattus norvegicus, UniProt P97612); read-out In Vitro 100 nM (FAAH activity, % of control); what value for CN(C(=O)n1cnc(-c2ccc(OC(F)F)cc2)c1)C1CCCCC1 ?
Result: 71.5 % of control

Q: What about this compound? CN(C(=O)n1cnc(-c2ccc(O)c(F)c2)c1)C1CCCCC1
Result: 29.7 % of control

Q: What about this compound? CN(C(=O)n1cnc(-c2ccc(Cl)c(Cl)c2)c1)C1CCCCC1
Result: 85 % of control

---
Q: Test system FAAH (Rattus norvegicus, UniProt P97612); read-out In Vitro 100 nM (FAAH activity, % of control); what value for CN(C(=O)n1cnc(-c2cccnc2)c1)C1CCCCC1 ?
Result: 75.4 % of control

Q: What about this compound? COc1cccc(-c2cn(C(=O)N3COCC3(C)C)cn2)c1
Result: 99.5 % of control

###

Measured In Vivo BRh 3 mg·kg 8 h (remaining FAAH activity, % of control) accompanies every entry in the list below.
biological target: FAAH (Mus musculus, UniProt O08914); construct: A fragment of liver, left lung lobe and brain without cerebellum were removed; from tissue; host or cells: male NMRI mice; brain (without cerebellum) and liver homogenates; experiment: In vivo FAAH inhibition after oral dosing, remaining activity in brain homogenate (BRh, central nervous tissue); design: species or system NMRI mice; details: brain homogenate, 3 mg/kg, 8 h after dosing; low value = strong inhibitor
Sequence (O08914 whole entry, the tested form may be a part): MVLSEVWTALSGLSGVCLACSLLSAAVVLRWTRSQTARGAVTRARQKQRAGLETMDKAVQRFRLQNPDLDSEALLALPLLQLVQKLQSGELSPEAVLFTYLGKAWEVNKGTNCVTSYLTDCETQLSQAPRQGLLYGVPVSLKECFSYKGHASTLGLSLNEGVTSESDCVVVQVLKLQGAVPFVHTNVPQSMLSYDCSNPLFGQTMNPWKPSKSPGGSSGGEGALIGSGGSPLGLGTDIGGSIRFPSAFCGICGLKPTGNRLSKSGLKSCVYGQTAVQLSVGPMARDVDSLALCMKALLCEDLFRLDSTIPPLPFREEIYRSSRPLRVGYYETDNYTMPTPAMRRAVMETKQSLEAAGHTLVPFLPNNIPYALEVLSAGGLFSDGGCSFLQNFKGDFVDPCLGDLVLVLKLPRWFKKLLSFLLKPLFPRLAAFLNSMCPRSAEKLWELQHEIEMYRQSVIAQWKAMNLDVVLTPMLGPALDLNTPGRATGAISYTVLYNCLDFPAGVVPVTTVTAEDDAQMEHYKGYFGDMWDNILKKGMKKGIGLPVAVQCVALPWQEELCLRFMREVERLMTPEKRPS

Known results for molecules:
Q: Entry CN(C(=O)n1cnc(-c2ccc(O)cc2)c1)C1CCN(C(=O)OC(C)(C)C)CC1 [Compound no. 469] has what In Vivo BRh 3 mg·kg 8 h (remaining FAAH activity, % of control)?
Result: 1.4 % of control

Q: What about this molecule? CN(C(=O)n1cnc(-c2ccc(O)c(-c3nn[nH]n3)c2)c1)C1CCCCC1 [Compound no. 439]
Result: 94.4 % of control

Q: What about this molecule? CN(C(=O)n1cnc(-c2cccc(-c3cccc(C(N)=O)c3)c2)c1)C12CC3CC(CC(C3)C1)C2 [Compound 287]
Result: 105.8 % of control

Now look at this entry.
Q: Entry COc1ccc(-c2cn(C(=O)N(C)C3CCN(Cc4ccccc4)CC3)cn2)cc1 [Compound no. 419] has what In Vivo BRh 3 mg·kg 8 h (remaining FAAH activity, % of control)?
Result: 0.8 % of control

###

molecular target: FAAH (Mus musculus, UniProt O08914); construct: A fragment of liver, left lung lobe and brain without cerebellum were removed; from tissue; host or cells: male NMRI mice; brain (without cerebellum) and liver homogenates; assay: In vivo FAAH inhibition after oral dosing, remaining activity in brain homogenate (BRh, central nervous tissue); set-up: species or system NMRI mice; details: brain homogenate, 3 mg/kg, 8 h
Assay Endpoint: In Vivo BRh 3 mg/kg 8 h, remaining FAAH activity

Known results for compounds:
Q: Entry O=C(N1CCC(c2nc(-c3cccnc3)no2)CC1)n1nnc2ccccc21 has what In Vivo BRh 3 mg/kg 8 h, remaining FAAH activity?
Result: 126.2 % of control

Q: What about this compound? CC1(C)COCN1C(=O)n1cnc(-c2ccc(Cl)cc2)c1
Result: 78.7 % of control

Q: What about this compound? O=C(N1CCC(Cc2ccccc2)CC1)n1cnc(-c2ccc(F)cc2F)n1
Result: 70 % of control

---
Q: Entry COc1cccc(-c2cn(C(=O)N3CCCc4ccccc43)cn2)c1 has what In Vivo BRh 3 mg/kg 8 h, remaining FAAH activity?
Result: 120.6 % of control

Q: What about this compound? O=C(N1CCC(c2ccncc2)CC1)n1nnc2ccccc21
Result: 102.9 % of control

Q: What about this compound? Cc1c(-c2ccccc2)ncn1C(=O)N1COCC1(C)C
Result: 98.1 % of control

Q: What about this compound? O=C(N1CCN(C2CCCCC2)CC1)n1nnc2ccccc21
Result: 111.5 % of control

Q: What about this compound? NC(=O)c1ccc(Oc2cccc(-c3ncn(C(=O)N4CCN(c5ccccc5)CC4)n3)c2)cc1
Result: 97.2 % of control

Q: What about this compound? CN(C(=O)n1cnc(-c2cccc(-c3cccc(O)c3)c2)c1)C1CCCCC1
Result: 131.7 % of control

###

Measured In Vitro FAAH activity, 100 nM accompanies every entry in the list below.
target: FAAH (Rattus norvegicus, UniProt P97612); construct: Frozen brains (without cerebellum) from Wistar rats were used; from tissue; host or cells: Wistar rat brain (without cerebellum), washed membrane pellets; test: In vitro FAAH activity in rat brain membranes, 3H-AEA substrate, % of control; format: biochemical, Wistar rats; details: 100 nM test compound, low value = strong inhibitor

Q: Entry COc1cccc(OCC2CCN(C(=O)n3nnc4ccccc43)CC2)c1 has what In Vitro FAAH activity, 100 nM?
Result: 0 % of control

Q: What about this molecule? CN(C(=O)n1nnc2cc(-c3cccc(C(=O)O)c3)ccc21)C1CCCCC1
Result: 13.5 % of control

Q: What about this molecule? CN1CCN(c2ccc(-c3ncn(C(=O)N4CCOCC4)n3)cc2)CC1
Result: 80.2 % of control

Q: What about this molecule? COc1ccc(-c2cn(C(=O)N(C)C3CCCCC3)cn2)cc1OC
Result: 80.5 % of control

Q: What about this molecule? O=C(N1Cc2ccccc2C1)n1nnc2ccccc21
Result: 0.7 % of control

Q: What about this molecule? CC1(C)OCCN1C(=O)n1cnc(-c2ccccc2)c1
Result: 103.7 % of control

Q: What about this molecule? Cl.O=C(N1CCN(Cc2ccccc2)CC1)n1cnc(-c2cccs2)n1
Result: 0.3 % of control

Q: What about this molecule? O=C(N1CCC(CCCc2ccccc2)CC1)n1cnc(-c2ccc(Cl)cc2)c1
Result: 0.3 % of control

Q: What about this molecule? CN(C(=O)n1nnc2ccc(Cl)cc21)c1ccccc1
Result: 0.1 % of control

Q: What about this molecule? CC(C)(C)N(Cc1ccccc1)C(=O)n1cnc(-c2ccc(Cl)cc2)c1
Result: 83.6 % of control

Q: What about this molecule? O=C(NC12CC3CC(CC(C3)C1)C2)n1nnc2ccccc21
Result: 0 % of control

Q: What about this molecule? CN(C(=O)n1cnc(-c2ccccc2)c1)C12CC3CC(CC(C3)C1)C2
Result: 99.2 % of control

Q: What about this molecule? CCOC(=O)N1CCN(C(=O)n2nnc3ccccc32)CC1
Result: 6.9 % of control

Q: What about this molecule? O=C(N1CCN(c2ccccc2)CC1)n1nnc2ccccc21
Result: 0 % of control

Q: What about this molecule? CN(C(=O)n1cnc(-c2ccc(Cl)cc2)c1)c1ccc(F)cc1
Result: 88 % of control

Q: What about this molecule? COc1ccc(-c2ncn(C(=O)N(C)c3ccccc3)n2)cc1
Result: 67.9 % of control

Q: What about this molecule? CN(Cc1cccc(Cl)c1)C(=O)n1nnc2ccccc21
Result: 0 % of control

Q: What about this molecule? CC(C)N(Cc1ccccc1)C(=O)n1cnc(-c2ccc(Cl)cc2)c1
Result: 95.8 % of control

Q: What about this molecule? COc1ccc(OCCC2CCN(C(=O)n3nnc4ccccc43)CC2)cc1
Result: 0.1 % of control

Hey, just so you know, these numbers are from patent US9353082B2.
